Tested on: Human breast cancer cell line BT-474
Assay: In vivo breast cancer inhibiting effect (BT-474 implanted in nude mice)
Details: nude mice with BT-474 tumors, orally twice daily 30 mg/kg body weight for 10 days
TEST_READOUT: Inhibition ratio (%)

For OCC(O)Cc1nccn1CCCCc1ccc(OCc2coc(/C=C/c3ccc(F)cc3)n2)cc1 (centres unmarked) the compound record lists Inhibition ratio (%) as 27%

// field: Inhibition ratio (%); key: OCC(O)Cc1nccn1CCCCc1ccc(OCc2coc(/C=C/c3ccc(F)cc3F)n2)cc1 (centres unmarked) [Reference Example B26] ; value = 15%

Please fill in: Inhibition ratio (%) reported for FC(F)(F)c1ccc(/C=C/c2nc(COc3cccc(CCCn4ccnn4)c3)co2)cc1 [Reference Example B6] = 28%

Query OCC(O)Cc1nccn1CCCCc1ccc(OCc2coc(/C=C/c3ccc(C(F)(F)F)cc3)n2)cc1 (centres unmarked) yields Inhibition ratio (%) of 28%

GET /value?item= FC(F)(F)c1ccc(/C=C/c2nc(COc3ccc(CCCCn4ccnn4)cc3)co2)cc1 [Reference Example B4] &field=Inhibition ratio (%) returns 5%

====

Please go through the items and note down their melting point.

// melting point value for Fc1ccc(/C=C/c2nc(COc3cccc(CCCn4ccnn4)c3)co2)cc1 : 105 to 106 °C

Entry FC(F)(F)c1ccc(/C=C/c2nc(COc3cccc(CCCn4ccnn4)c3)co2)cc1 [Reference Example B6] , melting point reported as 115 to 116 °C

Briefly, melting point measured for OCCc1nccn1CCCCc1ccc(OCc2coc(/C=C/c3ccc(F)cc3F)n2)cc1 [Reference Example B19] : 93 to 95 °C

Form field melting point, entry Cc1ccccc1/C=C/c1nc(COc2ccc(CCCCn3ccnc3CCO)cc2)co1 : 91 to 93 °C

Fc1ccc(/C=C/c2nc(COc3ccc(CCCCn4ccnn4)cc3)co2)c(F)c1 yielded melting point of 115 to 117 °C

// Cc1cccc(/C=C/c2nc(COc3ccc(CCCCn4ccnc4CCO)cc3)co2)c1 : melting point value = 109 to 111 °C

For reference, reported melting point for Cc1ccc(/C=C/c2nc(COc3ccc(CCCCn4ccnc4CCO)cc3)co2)cc1 stands at 108 to 109 °C

So, OCC(O)Cc1nccn1CCCc1cccc(OCc2coc(/C=C/c3ccc(F)cc3F)n2)c1 (stereo not drawn) ? Its melting point was 92 to 94 °C

Looking up OCCc1nccn1CCCc1ccc(OCc2coc(/C=C/c3ccc(F)cc3F)n2)cc1 , I see its melting point listed as 94 to 96 °C

Lab note: Cc1cccc(/C=C/c2nc(COc3ccc(CCCCn4ccnc4CC(O)CO)cc3)co2)c1 (stereo not drawn) gave melting point of 102 to 104 °C

The compound listed as OCC(O)Cc1nccn1CCCCc1ccc(OCc2coc(/C=C/c3c(F)cccc3F)n2)cc1 (stereo not drawn) has a reported melting point of 123 to 125 °C

The compound identified as FC(F)(F)c1ccc(/C=C/c2nc(COc3ccc(CCCn4ccnn4)cc3)co2)cc1 registered its melting point at 157 to 158 °C

So, OCCc1nccn1CCCCc1ccc(OCc2coc(/C=C/c3ccc(Br)cc3)n2)cc1 ? Its melting point was 149 to 150 °C

Summary for this compound, OCCc1nccn1CCCCc1ccc(OCc2coc(/C=C/c3ccc(Cl)cc3)n2)cc1 : melting point is 127 to 128 °C

melting point recorded for this compound, OCC(O)Cc1nccn1CCCCc1ccc(OCc2coc(/C=C/c3ccc(F)cc3)n2)cc1 (stereo not drawn) , is 114 to 116 °C

The recorded melting point for OCCc1nccn1CCCCc1ccc(OCc2coc(/C=C/c3ccc(F)cc3)n2)cc1 is 130 to 132 °C

Record summary for OCC(O)Cc1nccn1CCCc1cccc(OCc2coc(/C=C/c3ccc(C(F)(F)F)cc3)n2)c1 (stereo not drawn) : reported melting point = 102 to 104 °C

Consider CCc1ccc(/C=C/c2nc(COc3ccc(CCCCn4ccnc4CCO)cc3)co2)cc1 . Its measured melting point is 94 to 95 °C

melting point for Fc1ccc(/C=C/c2nc(COc3ccc(CCCCn4ccnn4)cc3)co2)cc1 [Reference Example B2] is 124 to 125 °C

# melting point of OCC(O)Cc1nccn1CCCCc1ccc(OCc2coc(/C=C/c3ccc(C(F)(F)F)cc3)n2)cc1 (stereo not drawn) = 142 to 143 °C

// field: melting point; key: Fc1ccc(/C=C/c2nc(COc3cccc(CCCn4ccnn4)c3)co2)c(F)c1 ; value = 89 to 90 °C
